System: C33A
test-summary: Primary qHTS to identify gynecologic anti-cancer compounds using libraries of approved drugs and bioactive compounds (AID 1345084); also: nearly all actives have a fitted effect of over 55% in size
experimental-parameters: Gynecologic cancer cell panel viability, ATPlite luminescence, 48 h; series mostly up to 57.5 µM
Inconclusive results are not listed. Active and inactive are the calls of the source. Calls follow the shape of the dose curve; as a rule, active = well fitted cell-killing curve with a large enough effect; inconclusive = small, poorly fitted or top-dose-only effect, or effect the other way; inactive = flat fitted curve, though single readings scatter. Peptide text beside a SMILES is read from it.
Output constraint: value belongs to 1 (active), -1 (inactive)

Query block: Each molecule tested received a call. Report the one for O=C(OC1C[C@H]2CC[C@@H](C1)[N+]21CCCC1)C(O)(c1ccccc1)c1ccccc1 (some centres undefined) .
Result block: -1

Query block: Status in this test for COC(=O)[C@H](Cc1ccccc1)NC(=O)[C@@H](N)CC(=O)O (H-Asp-Phe-OMe) ?
Result block: -1

Query block: Status in this test for Clc1ccc(C(Cn2ccnc2)OCc2ccsc2Cl)c(Cl)c1 (centres undefined) ?
Result block: -1

Query block: What classification did CCC(C)(Oc1ccc(C2(c3ccc(OC(C)(CC)C(=O)O)cc3)CCCCC2)cc1)C(=O)O (centres undefined) end up with in this test?
Result block: -1

Query block: Tell me the assay call for `CS(=O)(=O)OCCCCOS(C)(=O)=O` please.
Result block: -1

----------
test-summary: Quantitative High-Throughput drug screen in 47 multiple myeloma cell lines against the NCATS MIPE library collection: U266_ATCC cell viability assay (AID 1919864); also: nearly all actives have a fitted effect of over 35% in size
experimental-parameters: U266 myeloma viability, CellTiter-Glo ATP luminescence, 48 h; series mostly up to 45.8 µM
Description: PI: Beverly A. Mock Ph.D. Laboratory of Cancer Biology and Genetics, Center for Cancer Research, National Cancer Institute, National Institute of Health, Bethesda, Maryland […] 5; Detector; 425V; Luminescence; Viewlux PerkinElmer. […] 1. […] Briefly, the corresponding myeloma cell lines were screened in 1,536-well plates with 500 cells, 5-uL per well for inhibition of cell viability (assessed by measuring ATP levels with CellTiterGlo). […]
Results filed as inconclusive are left out. Active and inactive are the calls of the source. The call rests on the fitted dose curve; in most records, active means well fitted cell-killing curve with a large enough effect; inconclusive means small, poorly fitted or top-dose-only effect, or effect the other way; inactive means no such curve, though single readings can be large or run the other way.
Choose the fitting class; nothing outside active, inactive is accepted.

Query block: Dear all, I need the recorded test outcome for `CN1C(C(=O)Nc2ccccn2)=C(O)c2sccc2S1(=O)=O` , thank you.
Result block: inactive

Query block: Entry `CCOC(=O)C1=C(O)C(=O)N(Cc2ccccc2)C1` : call = ?
Result block: inactive

Query block: How was `Oc1ccc2ccccc2c1SSc1c(O)ccc2ccccc12` classified in this test?
Result block: active

Next:
Query block: So what was the verdict on `Cc1nc(Nc2ncc(C(=O)Nc3c(C)cccc3Cl)s2)cc(N2CCN(CCO)CC2)n1` in this test?
Result block: active

----------
Tested on: AA1029
test-summary: qHTS profiling for inhibitors of Plasmodium falciparum proliferation (AID 504749); also: nearly all actives have a fitted effect of over 60% in size
experimental-parameters: P. falciparum in erythrocytes, SYBR Green DNA, 72 h; series mostly up to 28.7 µM
Records with an inconclusive call do not appear. Activity calls are given as the source filed them. Calls follow the shape of the dose curve; as a rule, active = well fitted inhibition curve with a large enough effect; inconclusive = small, poorly fitted or top-dose-only effect; inactive = flat fitted curve, though single readings scatter.
Log the outcome using a class from active, inactive

Query block: Entry `CN1CCC(=C2c3ccccc3CCc3sccc32)CC1` : call = ?
Result block: active

Query block: Assay result, entry `CN(C)c1ccc2nc3ccc(=[N+](C)C)cc-3sc2c1` — outcome?
Result block: active

Next:
Query block: Can you look up the reported call for `CN1C(C(=O)Nc2ccccn2)=C(O)c2sccc2S1(=O)=O` for me?
Result block: inactive

Query block: Per the records of this test, what outcome belongs to `Cc1ccc(C)c(OCCCC(C)(C)C(=O)O)c1` ?
Result block: inactive

Query block: Hi team, can someone confirm the assay call for Nc1ccn([C@@H]2O[C@H](CO)[C@@H](O)C2O)c(=O)n1 (stereo not given in full) ?
Result block: inactive

----------
test-summary: Quantitative High-Throughput drug screen in 47 multiple myeloma cell lines against the NCATS MIPE library collection: MM1R_ATCC cell viability assay (AID 1918981); also: nearly all actives have a fitted effect of over 35% in size
experimental-parameters: MM1R multiple myeloma cells, CellTiter-Glo viability, 48 h; series mostly up to 45.8 µM
Records with an inconclusive call do not appear. Active and inactive are the calls of the source. The call rests on the fitted dose curve; in most records, active means well fitted cell-killing curve with a large enough effect; inconclusive means small, poorly fitted or top-dose-only effect, or effect the other way; inactive means no such curve, though single readings can be large or run the other way. Non-standard residues stand in square brackets, D forms with d. Residues, ends and D or L forms follow the SMILES beside them. *: point of attachment. Sta = CC(C)C[C@H](N)[C@@H](O)CC(=O)O; Isovaleryl = CC(C)CC(=O)*
Write down one outcome, taken from active, inactive

Query block: State the result this test recorded for CC(C)CC(=O)N[C@H](C(=O)N[C@H](C(=O)N[C@@H](CC(C)C)[C@@H](O)CC(=O)N[C@@H](C)C(=O)N[C@@H](CC(C)C)[C@@H](O)CC(=O)O)C(C)C)C(C)C (Isovaleryl-VV[Sta]A[Sta]-OH) .
Result block: inactive

Query block: Assay result, entry `CCOC(=O)C1=C[C@@H](OC(CC)CC)[C@H](NC(C)=O)[C@@H](N)C1` — outcome?
Result block: inactive

Query block: Dear colleague, could you share the recorded outcome for COc1ccc(C2(C#N)CCC(C(=O)O)CC2)cc1OC1CCCC1 (stereo unspecified) when you have a moment?
Result block: inactive

Query block: For `CC(C)c1ccc2oc3nc(N)c(C(=O)O)cc3c(=O)c2c1` , which call appears in the assay record?
Result block: inactive

Query block: What did this assay record as the result for `CNC[C@H](O)c1ccc(O)c(O)c1` ?
Result block: active

---
Query block: Assay result, entry O=C(OC1C[C@H]2CC[C@@H](C1)[N+]21CCCC1)C(O)(c1ccccc1)c1ccccc1 (stereo partly specified) — outcome?
Result block: inactive

Query block: # fetch the recorded call for `CCN(CC)CCOc1ccc(Nc2ncc3cc(-c4c(Cl)cccc4Cl)c(=O)n(C)c3n2)cc1` here
Result block: active

----------
test-summary: Primary qHTS for inhibitors of nuclear receptor binding SET domain protein 2 (NSD2) in an isogenic RCH-ACV NSD2 p.E1099K mutant (9B) (AID 1645876); also: nearly all actives have a fitted effect of over 70% in size
experimental-parameters: RCH-ACV (leukaemia line) NSD2 E1099K (9B) viability, CellTiter-Glo, 72 h; series mostly up to 44.9 µM
Records with an inconclusive call do not appear. Active and inactive are the calls of the source. Calls follow the shape of the dose curve; as a rule, active = well fitted inhibition curve with a large enough effect; inconclusive = small, poorly fitted or top-dose-only effect; inactive = flat fitted curve, though single readings scatter.
Entry note: the call must match one of active, inactive

Reference set, count: 3
Query block: Returns: the outcome recorded for `O=C(CCc1ccc(O)cc1)c1c(O)cc(O)cc1O` in this assay.
Result block: inactive

Query block: Dear colleague, could you share the recorded outcome for `O=C(NCCO[N+](=O)[O-])c1cccnc1` when you have a moment?
Result block: inactive

Query block: Entry `Cc1nc2n(c(=O)c1CCN1CCC(c3noc4cc(F)ccc34)CC1)CCCC2` : call = ?
Result block: inactive

Others:
Query block: Write down the call the test reported for this compound. Item: O=C(NC(Cc1cc(=O)[nH]c2ccccc12)C(=O)O)c1ccc(Cl)cc1 (configuration not stated)
Result block: inactive

Query block: Could you check what this test reported for O=C(NCC1CCCCN1)c1cc(OCC(F)(F)F)ccc1OCC(F)(F)F (configuration not stated) ?
Result block: inactive

Query block: So what was the verdict on `O=C1CCc2ccc(OCCCCN3CCN(c4cccc(Cl)c4Cl)CC3)cc2N1` in this test?
Result block: inactive

Query block: Hi team, can someone confirm the assay call for `CCCCCCCCCCCCCCCCCCCCCCO` ?
Result block: inactive

Query block: In this assay, the call recorded for `NC(=NCc1ccccc1)NC(=O)c1nc(Cl)c(N)nc1N` was what?
Result block: active

Query block: State the result this test recorded for Clc1ccc(C(Cn2ccnc2)OCc2ccsc2Cl)c(Cl)c1 (configuration not stated) .
Result block: active

Query block: Kindly provide the recorded test outcome for the following compound: `c1cnc2cc3c(cc2n1)C1CNCC3C1`
Result block: inactive

Query block: Test call for this compound, please: `CCOC(=O)C1=C[C@@H](OC(CC)CC)[C@H](NC(C)=O)[C@@H](N)C1`
Result block: inactive

Query block: # fetch the recorded call for Clc1ccc(C(Cn2ccnc2)OCc2ccc(Sc3ccccc3)cc2)c(Cl)c1 (configuration not stated) here
Result block: active

----------
study-target: Cytochrome P450 2C9 (Homo sapiens)
test-summary: Cytochrome P450 family 2 subfamily C member 9 (CYP2C9) small molecule antagonists: luciferase biochemical (cell-free) qHTS assay (AID 1645842); also: nearly all actives have a fitted effect of over 55% in size
experimental-parameters: P450-Glo CYP2C9 enzyme assay, luciferin luminescence; series mostly up to 57.4 µM
Inconclusive results are not listed. Active and inactive are the calls of the source. Calls follow the shape of the dose curve; as a rule, active = well fitted inhibition curve with a large enough effect in the repeat runs; inconclusive = weak or mixed curves; inactive = no such curve, though single readings can be large or run the other way.
Pick from yes (1) (active), no (0) (inactive) when you respond.

Query block: Hi team, can someone confirm the assay call for `N=C(N)c1ccc2cc(OC(=O)c3ccc(N=C(N)N)cc3)ccc2c1` ?
Result block: no (0)

Query block: I'd appreciate the recorded outcome for `c1cnc2cc3c(cc2n1)C1CNCC3C1` from this test.
Result block: no (0)

Query block: Dear all, I need the recorded test outcome for `CC(=O)Nc1ccc(O)cc1` , thank you.
Result block: no (0)

Query block: Kindly provide the recorded test outcome for the following molecule: `CN1CCC(=C2c3ccccc3CCc3sccc32)CC1`
Result block: no (0)

Query block: Please indicate how the test categorized O=C(c1ccccc1)c1ccc2n1CCC2C(=O)O (stereo unspecified) .
Result block: no (0)

Shifting focus to the molecule that follows.
Query block: Hi, sorry to bother you, what did the test record for `Cc1ccc(Nc2nccc(N(C)c3ccc4c(C)n(C)nc4c3)n2)cc1S(N)(=O)=O` ?
Result block: yes (1)
